Target: purified HLA DRB1*1302 (Homo sapiens, UniProt P01903+P01911, A100E/A169T/K41T/L162R/M171V/P40S/Q125H/Q178H/Q39Y/Q99D/R42S/S66N/T262R/V115G/W38E/Y61H)
Construct: purified from EBV transformed homozygous cell lines or single MHC allele transfected 721.221, C1R, or fibroblast lines; made in house
Experiment: HLA-DR radioligand binding inhibition assay, DRB1*1302
Experimental: Instead, wells of an opaque white 96-well Optiplate (Packard) are coated with 3 μg (100 μl@ 30 μg/ml) of HLA-specific antibody (Ab) that “capture” complexes of radiolabeled MHC and unlabeled peptide transferred from the molecular binding assay plate in 100 μl of 0.05% NP40/PBS. […] Captured complexes are then measured on a microplate scintillation and luminescence counter (TopCount NXTTM; Packard). […]
observable: IC50 (nM)
# unit: nM | format: bare number

See these solved cases before continuing.
Lookup: Return reported IC50; argument: CSCC[C@H](NC(=O)[C@H](C)NC(=O)[C@H](CC(C)C)NC(=O)[C@@H]1CCCN1C(=O)[C@H](Cc1ccccc1)NC(=O)[C@@H](NC(=O)[C@H](CCC(=O)O)NC(=O)[C@H](CCC(=O)O)NC(=O)[C@@H](N)CCC(=O)O)C(C)C)C(=O)N[C@@H](CC(N)=O)C(=O)N[C@@H](Cc1ccc(O)cc1)C(=O)N[C@@H](CC(C)C)C(=O)N[C@@H](CC(=O)O)C(=O)N[C@@H](CCCNC(=N)N)C(=O)N[C@@H](Cc1ccccc1)C(=O)O [Peptide 9019.0152]
Found: 26

Lookup: Return reported IC50; argument: CC[C@H](C)[C@H](NC(=O)CNC(=O)[C@H](CS)NC(=O)[C@@H](N)C(C)C)C(=O)N[C@@H](CCC(N)=O)C(=O)N[C@@H](CC(N)=O)C(=O)N[C@@H](CO)C(=O)N[C@H](C(=O)N[C@@H](CO)C(=O)N[C@@H](C)C(=O)N[C@@H](CC(N)=O)C(=O)N[C@@H](CCCNC(=N)N)C(=O)N[C@@H](CO)C(=O)N[C@@H](CC(=O)O)C(=O)N1CCC[C@H]1C(=O)O)C(C)C [Peptide 9019.0135]
Found: 921

Continuing:
Lookup: Return reported IC50; argument: CC[C@H](C)[C@H](NC(=O)[C@H](CCCNC(=N)N)NC(=O)[C@H](CC(C)C)NC(=O)[C@H](CCCNC(=N)N)NC(=O)[C@H](CCC(N)=O)NC(=O)[C@H](CC(C)C)NC(=O)[C@@H]1CCCN1C(=O)[C@@H](NC(=O)[C@H](CCC(N)=O)NC(=O)[C@H](CCCNC(=N)N)NC(=O)[C@@H](N)C(C)C)C(C)C)C(=O)N[C@H](C(=O)N[C@@H](CCCNC(=N)N)C(=O)NCC(=O)N[C@H](C(=O)O)[C@@H](C)O)C(C)C [Peptide 9019.0035]
Found: 2540
